Where do the numbers come from? From PubChem BioAssay (NCI).

tested on: MOLT-4 leukemia; experiment: NCI-60 one-dose screen, 48 h; details: 10 µM unless noted
This is part of a sample that, as a whole, favours compounds with a hit. Of some 83,000 tested, about 20% had one in any assay. Calls of active or inactive are those of the source. How the source made its calls: active means growth percent below 10; inactive means the rest.
Your reply should match one of these outcome classes. 1.0 (active), 0.0 (inactive)

Assay result, entry `O=C1/C=C/[C@@H](O)[C@@H]2C[C@@H](O)C[C@H]2/C=C/CCC[C@@H](O)CCO1` — outcome?
0.0

Further, for `N#C/C(=C\c1cn(Cc2ccccc2)c2ccccc12)C(=O)Nc1ncc(Cc2ccccc2Cl)s1` ?
0.0

Further, for `Cc1c2cccnc2c(C)c2c1c1cc(CO)ccc1n2C` ?
0.0

Further, for `O=S(=O)(Oc1ccc(Br)cc1)c1ccc(Cl)cc1` ?
0.0

Further, for `O=C(C1=Cc2cc3ccccc3n2Cc2cnnn21)c1ccc(O)cc1` ?
0.0

Further, for CCCCCCCCCCCCCCCCCC1=NC(C)(C)CN1CC(C)O (configuration not stated) ?
0.0

Further, for `CCOC(=O)c1cnc2c(N=Nc3ccc(OC)cc3)c(N)nn2c1N` ?
0.0

Further, for Cc1nc2sc(C(=O)Nc3cccc(Br)c3C)c(N)c2cc1C(O)c1ccccc1 (configuration not stated) ?
0.0

Further, for `O=C(CCCCCNC(=O)c1cc(=O)c(O)co1)Nc1ccccc1` ?
0.0

Further, for `COc1cccc(NCc2nnc(Nc3ccc(Cl)cc3)c3ccccc23)c1` ?
1.0

Further, for C#CC#CC#CC#CC#CC#CC#CC#CCC1OC[C@H](COC(=O)O[C@@H](C(=O)O[C@H]2C[C@@]3(O)[C@@H](OC(=O)c4ccccc4)[C@@H]4[C@]5(OC(C)=O)CO[C@@H]5C[C@H](O)[C@@]4(C)C(=O)[C@H](OC(C)=O)C(=C2C)C3(C)C)[C@@H](NC(=O)c2ccccc2)c2ccccc2)O1 (some centres not stated) ?
0.0

Further, for `CC/C=C\C[C@H](O)C/C=C1/C(=O)C=C[C@@H]1C/C=C\CCCC(=O)O` ?
1.0

Further, for `Cc1n[nH]c2ccc(Br)cc2c1=O` ?
0.0

Further, for `O=C(N/N=C\c1cccc([N+](=O)[O-])c1)N/N=C/c1cccc([N+](=O)[O-])c1` ?
0.0

Further, for N#Cc1ccc(O)c(C2=NCC(Cc3ccccc3)O2)c1 (configuration not stated) ?
0.0

Further, for `Clc1c(Cl)[n+](Cc2ccc3ccccc3c2)cn1Cc1ccc2ccccc2c1` ?
1.0

Further, for Cc1ccc2nc(/C(C#N)=C(/CCCO)NC(Cc3ccccc3)C(=O)OCc3ccccc3)[nH]c(=O)c2c1 (configuration not stated) ?
0.0

Further, for `C=C1C(=O)O[C@H]2[C@H]1CC/C(COC(=O)/C=C/C(=O)OC/C1=C/CC[C@@]3(C)O[C@H]3[C@H]3OC(=O)C(=C)[C@@H]3CC1)=C\CC[C@@]1(C)O[C@@H]21` ?
1.0

Further, for `Cc1nc2c(=O)nc3s/c(=C\c4ccco4)c(=O)n3c2nc1C` ?
0.0

Further, for `COc1ccc(N2CCN(C(=O)c3sc4nc(C)c(Br)c(C)c4c3N)CC2)cc1` ?
0.0

Further, for `CCNc1ccc(-c2nc3ccccc3n3cccc23)cc1` ?
0.0

Further, for `COc1ccc(Cn2cc(C(=O)N=Nc3c(O)[nH]c4c(C)cccc34)nn2)cc1` ?
0.0

Further, for O=C(NC(Cc1nnc2n(Cc3ccccc3)c(=O)c3c4c(sc3n12)CCCC4)c1ccccc1)c1ccccc1 (configuration not stated) ?
0.0

Further, for `CN1CCN(Cc2ccc(NC(=O)c3cncc(C#Cc4cnc5ccc(Cl)nn45)c3)cc2C(F)(F)F)CC1` ?
1.0

Further, for `COc1ccc(Oc2nc(Nc3ccc(N4CCOCC4)cc3)ncc2NC(=O)Nc2cc(OC)cc(OC)c2)cc1` ?
0.0

Further, for `CC(C)(C)n1cc(-c2ccnc(NCCCNS(=O)(=O)c3ccc(C(F)(F)F)cc3)c2)c(-c2cccc(F)c2)n1` ?
0.0

Further, for `Cn1cc(-c2nn3cc(-c4cccs4)nc3s2)c2cc(F)ccc21` ?
0.0

Further, for `COc1ccc(-c2nc3c(N)c(CO)cnc3s2)cc1` ?
0.0

Further, for `C#COc1cccc(Nc2ncnc3cc(NC(=O)[C@@H](C)Cl)ccc23)c1` ?
0.0

Further, for `COc1ccc(Nc2ncccc2/C=C/C(=O)c2cc(OC)c(OC)c(OC)c2)cc1` ?
1.0

Further, for `CCN(CC)CCCOc1ccc2ncnc(Nc3ccc(Oc4cccc(C(F)(F)F)c4)c(Cl)c3)c2c1` ?
1.0

Further, for `Cc1ccc(S(=O)(=O)c2nc(-c3ccccc3)oc2Sc2nc3ccccc3s2)cc1` ?
0.0

Further, for `COc1ccc(C(=O)/C=C/c2ccc(Cl)cc2)cc1S(=O)(=O)Nc1c(N)nc(SC)[nH]c1=O` ?
0.0

Further, for `O=c1c2ccccc2c(=O)c2c1sc1c(=O)c3ccc(O)cc3c(=O)c12` ?
1.0

Further, for `O=C(O)c1ccc(-c2ccc(/C=N/Nc3nc(Nc4ccccc4)nc(N4CCCCC4)n3)o2)cc1` ?
0.0

Further, for `N#Cc1nc(-c2ccccc2)oc1S(=O)(=O)N1CCN(c2ccc(F)cc2)CC1` ?
1.0

Further, for `N[C@H]1CCC[C@@H]1NCCCCN1C(=O)c2cccc3cc([N+](=O)[O-])cc(c23)C1=O` ?
1.0
